Source listed as PubChem BioAssay.

METHOD NOTES: splicing luciferase reporter signal modulators, primary screen, spliceosome inhibition project, cell-based, HEK293, splice +/- reporter (AID 1101);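 note: HEK293 cells carrying a splicing-competent luciferase reporter gene; test concentration not given here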
DETAILS: luminescence, 24 h, higher = more signal, called active from +8 up or from −8 down
PARAMETER: z-score
I only need the number, thanks.

Please report the recorded z-score for "C[N+](C)(C)CCCCCCNC(=O)[C@@H]1C[C@@H]2C(=O)N3CCC[C@H]3C(=O)N2[C@@H]1c1cccc(OCCO)c1" .
-0.739

Same read-out for "CC(=O)OC[C@H]1O[C@@H](ON=C[C@@H](C)[C@H](OCc2ccccc2)C(C)C)[C@H](OC(C)=O)[C@@H](OC(C)=O)[C@@H]1OC(C)=O" ?
0.14

Now the same for O=C1CCCC=C1C(O)CCOCc1ccccc1 (stereo not drawn)
0.322

Moving on to "C=C(/C(=C/C[C@H](OC(=O)c1ccncc1)c1ccc(OCCO)cc1)c1cnc2ccccc2c1)C(C)C"
0.215

Again, but for "CCOC(=O)NN=C1C[C@@H](O)[C@@H](O)[C@@H]2[C@@H]3C(=O)N(C[C@@H]4CCCO4)C(=O)[C@@H]3CC[C@@H]12"
0.104

Another compound to check: "C=C(COC)/C(=C/C[C@H](OC(=O)c1ccncc1)c1ccc(CO)o1)c1cc(C(=O)OC)ccc1OC"
-0.647

Further, for "CCc1cc2c(nc1CC)CCN(CCC(C)=NOC[C@@H](O)[C@H]1O[C@@H]3OC(C)(C)O[C@@H]3[C@H]1O)C2" ?
-0.173

// same read-out, input: "CC(C)=CCCC(C)=CCON=C1C[C@@H](O)[C@@H](O)[C@@H]2[C@@H]3C(=O)N(C[C@@H]4CCCO4)C(=O)[C@@H]3CC[C@@H]12"
0.363

For "O=C(CS)NCCCCCNC(=O)[C@H]1C[C@H]2C(=O)N3CCC[C@H]3C(=O)N2[C@H]1c1cccc(OCCO)c1" then?
0.378

Follow-up item: "CCN1C(=O)[C@H]2[C@H]3[C@H](O)[C@H](O)CC(=NOCc4ccccc4)[C@H]3CC[C@H]2C1=O"
0.462

Moving on to "COC(=O)[C@@H]1N=C(c2ccc(OCCCO)cc2)O[C@@H]1c1ccccc1N=[N+]=[N-]"
-1.99

Would you kindly repeat that for "COCCCNC(=O)[C@@]1(C)c2ccccc2C(=O)N(Cc2ccc(OC(F)(F)F)cc2)[C@H]1c1ccc(CO)cc1" ?
-0.346

Also need "O=C1[C@H]2[C@H]3[C@H](O)[C@H](O)CC(=NO[C@@H]4O[C@H](CO)[C@@H](O)[C@H](O)[C@H]4O)[C@@H]3CC[C@H]2C(=O)N1c1ccc(F)cc1F" , thanks.
-0.244

----------
METHOD NOTES: small-molecule microarray binders of probe aEGFR, primary screen, biochemical, biotinylated probe, 635/667 nm fluorescence (AID 1097);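 note: probe is a biotinylated anti-EGFR antibody binding compounds printed on slides; score combines fluorescence near 667 nm and signal to noise of each spot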
DETAILS: higher = more signal
Hi there, I'd appreciate the recorded composite z-score for every entry that follows.

Quick one: composite z-score of "CO[C@H]([C@@H](C)[C@H](OC)c1ccccc1)[C@H](C)[C@@H](OC)[C@H](C)C(C)=O" ?
-0.0996

Similarly, COc1cccc([C@H]2Oc3ccc(OC)cc3C(=NOC(C)CN3CCCc4nc(C)c(C)cc43)[C@@H]2O)c1 (some centres not stated) ?
0.0506

Also, "C[N+](C)(C)CCCCCCNC(=O)[C@@H]1C[C@@H]2C(=O)N3CCC[C@H]3C(=O)N2[C@@H]1c1cccc(OCCO)c1" please.
-0.0967

Okay, and "COCCOC(=O)N1C(=O)[C@@]2(c3ccccc31)[C@H](C(N)=O)[C@H]1C(=O)O[C@H](c3ccccc3)[C@H](c3ccccc3)N1[C@@H]2c1ccccc1OCCO" ?
0.261

And for "CC(=O)OC[C@H]1O[C@H](CCON=C(C)CCC(=O)OC[C@H]2O[C@H](C#Cc3ccccc3)C=C[C@@H]2Oc2ccc(C)cc2)C=C[C@@H]1OC(C)=O" ?
0.0567

Now the same for "O=C1[C@H]2[C@H]3[C@H](O)[C@H](O)CC(=NO[C@@H]4O[C@H](CO)[C@@H](O)[C@H](O)[C@H]4O)[C@H]3CC[C@H]2C(=O)N1Cc1ccccc1"
-0.0565

CC1(C)OCC(C(O)C2=CCCCC2=O)CO1 (configuration not stated) , same question.
0.0688

Ok, now "CCc1cc2c(nc1CC)CCN(CCC(C)=NO[C@@H](C)c1cc(-c3c(C)cc(C)cc3C)no1)C2"
-0.172

Ok, now "COCCCNC(=O)[C@@]1(CCS(=O)(=O)c2ccccc2)N=C(c2ccc(OCCCO)cc2)O[C@H]1c1ccccc1"
0.592

Next entry: "CCOC(=O)C1=CC[C@H]2C(=O)N(CC)C(=O)[C@@H]12"
0.125

Quick one: "COC(=O)CC=C[C@@H](C)[C@@H](C=NO[C@H](C)c1cn([C@@H]2COC[C@H]2O)nn1)OC"
0.0009

Moving on to "NC(=O)NCC#Cc1ccc2c(c1)[C@]1(C(=O)N2)[C@H](c2ccc(O)cc2)N2[C@H](c3ccccc3)[C@H](c3ccccc3)OC(=O)[C@H]2[C@@H]1C(=O)N1CCCCCCC1"
0.511

// next record "CC(C)OC(=O)C=C1C[C@@H](c2ccc(C#N)cc2)O[C@@H](c2ccc(C#N)cc2)O1"
0.11

Again, but for "CC(C)(C)N1C(=O)[C@H]2[C@H]3[C@H](O)[C@H](O)CC(=NO[C@@H]4O[C@H](CO)[C@@H](O)[C@H](O)[C@H]4O)[C@@H]3CC[C@H]2C1=O"
-0.0229

Another compound: "CC(CCN1CCc2nc(-c3ccccc3)c(-c3ccccc3)cc2C1)=NO[C@H](C)c1cn([C@@H]2COC[C@H]2O)nn1"
-0.137

Similarly, "COC(=O)CC=C[C@@H](C)[C@@H](C=NO[C@@H](C)c1cc(-c2c(C)cc(C)cc2C)no1)OC" ?
-0.419

Continue with "COc1ccccc1CN1C(=O)c2ccccc2[C@@]2(Cc3ccccc3N(C(C)C)C2=O)[C@@H]1c1ccc(CO)cc1"
-0.194

Also "CN(C)C(=O)[C@@]1(Cc2ccccc2)N=C(c2ccc(OCCCO)cc2)O[C@H]1c1ccccc1CN=[N+]=[N-]" ?
0.361

Would you mind doing "C=CCOC(=O)[C@H]1[C@@H]2C(=O)O[C@@H](c3ccccc3)[C@@H](c3ccccc3)N2[C@@H](c2ccc(OCCOC(=O)[C@H]3C[C@H]4C(=O)N[C@@H](Cc5ccccc5)C(=O)N4[C@H]3c3ccc(O)cc3)cc2)[C@]12C(=O)Nc1ccccc12" as well?
0.0499

Thanks! And Cc1cc2c(nc1C)CCCN2CC(O)CN1CCN(C)CC1 (configuration not stated) ?
-0.169

Further, for "COC(=O)[C@H]1COC(c2ccc(OCCCO)cc2)=N1" ?
-0.0947

Let us now turn to "COc1ccc(-c2nc3c(c4c2C[C@H](C)OC4)CN(CCC(C)C)CC3)cc1"
0.167
